# Tested on: Rattus norvegicus
# Protocol Details: Antiinflammatory activity against formalin-induced paw edema in anaesthetized Albino rat acute inflammatory model at 20 mg/kg, po dosed 1 hr before formalin challenge assessed after 1 hr
# Assay type: functional
Hi there, I'd appreciate the recorded Activity for every entry that follows.
Answer format: value, then unit.

Some solved cases for reference:
Test Smiles	Assay Value
CC(=O)Nc1nnc(SCC(=O)Nc2c(C)n(C)n(-c3ccccc3)c2=O)s1	43%
Cc1c(NC(=O)CSc2nnc(N)s2)c(=O)n(-c2ccccc2)n1C	26%
Cc1c(NC(=O)/C(C#N)=C2\SCC(=O)N2c2ccccc2)c(=O)n(-c2ccccc2)n1C	13%

// next item, Activity requested
For record Cc1c(NC(=O)/C(C#N)=C2\SC=C(c3ccc(Cl)cc3)N2c2ccc(Cl)cc2)c(=O)n(-c2ccccc2)n1C the listed Activity is 35%

Source: ChEMBL document CHEMBL1140859
